- target system: VEGF165 (recombinant human vascular endothelial growth factor, 165 aa form) (Homo sapiens, UniProt P15692-4 P15692-4:27-191)
- Sequence (P15692 other isoform, or with tags, fused parts or gaps): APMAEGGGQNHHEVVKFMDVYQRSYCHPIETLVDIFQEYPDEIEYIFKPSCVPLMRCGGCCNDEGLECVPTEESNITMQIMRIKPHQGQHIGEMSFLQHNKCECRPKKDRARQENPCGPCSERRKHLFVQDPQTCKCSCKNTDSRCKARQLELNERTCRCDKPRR
- method summary: filter; PBS, 0.01% HSA, 37 C; Kd1, X1 0.76, Kd2 182 nM
- protocol conditions: tags: gift from N. Ferrara, Genentech; chain copies: 2 (dimer, stated); label: 32P
- Protocol: Internally-labeled RNA ligands used for binding studies were prepared by in vitro transcription using T7 RNA polymerase (Milligan et al. (1987) Nucl. Acids Res. 15:8783) and were purified on denaturing polyacrylamide gels to ensure size homogeneity. […] 5 by the non-linear least squares method using the software package Kaleidagraph (Synergy Software, Reading, Pa.). […]
metric: pKd
Value format note: pKd is -log10 of concentration (mol/L); just state the number.

Query: Which measured pKd value corresponds to GGCCGGUAGUCGCAUGGCCCAUCGCGCCCGG (ssRNA) [ligand 100t] ?
Reply: 9.38
